target.entity: USP25 (UniProt Q9UHP3)
Sequence (Q9UHP3 whole entry, the tested form may be a part): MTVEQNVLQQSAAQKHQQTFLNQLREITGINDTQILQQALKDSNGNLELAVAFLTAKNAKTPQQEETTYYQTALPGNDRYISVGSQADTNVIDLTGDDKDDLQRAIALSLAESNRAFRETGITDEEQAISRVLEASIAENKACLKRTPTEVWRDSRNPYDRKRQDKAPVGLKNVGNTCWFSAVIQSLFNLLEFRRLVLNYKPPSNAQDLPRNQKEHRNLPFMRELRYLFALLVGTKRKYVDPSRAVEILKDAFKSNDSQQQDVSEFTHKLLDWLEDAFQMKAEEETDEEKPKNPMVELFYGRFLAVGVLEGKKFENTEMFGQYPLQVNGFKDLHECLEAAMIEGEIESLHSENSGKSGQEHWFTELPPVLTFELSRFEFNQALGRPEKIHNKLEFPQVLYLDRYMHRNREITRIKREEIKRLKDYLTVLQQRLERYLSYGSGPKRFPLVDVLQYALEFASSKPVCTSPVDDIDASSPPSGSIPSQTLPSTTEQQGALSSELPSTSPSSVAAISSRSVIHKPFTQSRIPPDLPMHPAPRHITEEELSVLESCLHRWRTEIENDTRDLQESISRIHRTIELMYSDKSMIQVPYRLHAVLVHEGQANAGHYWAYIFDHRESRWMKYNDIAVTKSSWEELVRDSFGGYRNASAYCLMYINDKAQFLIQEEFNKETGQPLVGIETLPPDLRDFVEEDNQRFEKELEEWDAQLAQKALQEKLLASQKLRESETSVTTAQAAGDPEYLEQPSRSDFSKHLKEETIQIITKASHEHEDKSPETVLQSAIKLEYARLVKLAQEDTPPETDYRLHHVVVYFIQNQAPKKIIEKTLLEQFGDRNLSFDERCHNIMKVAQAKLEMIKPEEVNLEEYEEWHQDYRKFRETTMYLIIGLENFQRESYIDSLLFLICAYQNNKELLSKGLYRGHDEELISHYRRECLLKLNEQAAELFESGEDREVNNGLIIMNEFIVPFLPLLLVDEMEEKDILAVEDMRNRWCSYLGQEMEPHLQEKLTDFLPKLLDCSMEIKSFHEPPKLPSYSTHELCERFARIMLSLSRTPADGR
assay.procedure: log2 ratio of Biotin-Ahx-Ub-VS probe labelling (fragment/DMSO); higher = less target engagement (more negative = stronger competition), active = hit call of the paper (q ≤ 0.05, log2 ratio ≤ -1)
condition.set: compound concentration: 200 uM; treatment time: 3 h
Measured log2 ratio of Biotin-Ahx-Ub-VS probe labelling, listed per entry.

Known log2 ratio of Biotin-Ahx-Ub-VS probe labelling results, listed for orientation:
{"molecule": "O=C(CCl)N1CCC(C(O)c2ccc(F)cc2)CC1 (centres undefined)", "target.entity": "USP25 (UniProt Q9UHP3)", "meas.value": "0.058 (inactive)"}
{"molecule": "Cl.O=C(CCl)N[C@H]1C[C@@H](n2cccn2)C1", "target.entity": "USP25 (UniProt Q9UHP3)", "meas.value": "-0.201 (inactive)"}

The reported log2 ratio of Biotin-Ahx-Ub-VS probe labelling of the molecule O=C(CCl)N[C@H]1CCS(=O)(=O)c2ccccc21 was -0.264 (inactive)

O=C(CCl)Nc1ccccc1C(F)(F)F has a reported log2 ratio of Biotin-Ahx-Ub-VS probe labelling of -0.713 (inactive)

The molecule identified as Cl.O=C(CCl)NCCN1CCc2ccccc21 registered its log2 ratio of Biotin-Ahx-Ub-VS probe labelling at -0.576 (inactive)

Measured log2 ratio of Biotin-Ahx-Ub-VS probe labelling of O=C(CCl)N1CCC(S(=O)(=O)c2ccc(F)cc2)CC1 : -0.444 (inactive)

Lookup result for Cc1ccc(C)c(NC(=O)CCl)c1 ; measured log2 ratio of Biotin-Ahx-Ub-VS probe labelling: -1.41 (active)

get_value(item= O=C(CCl)N1CCC(c2noc3cc(F)ccc23)CC1 , readout=log2 ratio of Biotin-Ahx-Ub-VS probe labelling) returns -0.302 (inactive)

GET /value?item= Cc1noc(N2CCN(C(=O)CCl)CC2)n1.Cl &field=log2 ratio of Biotin-Ahx-Ub-VS probe labelling returns -0.13 (inactive)

###

target.entity: USP39 (UniProt Q53GS9)
Sequence (whole entry): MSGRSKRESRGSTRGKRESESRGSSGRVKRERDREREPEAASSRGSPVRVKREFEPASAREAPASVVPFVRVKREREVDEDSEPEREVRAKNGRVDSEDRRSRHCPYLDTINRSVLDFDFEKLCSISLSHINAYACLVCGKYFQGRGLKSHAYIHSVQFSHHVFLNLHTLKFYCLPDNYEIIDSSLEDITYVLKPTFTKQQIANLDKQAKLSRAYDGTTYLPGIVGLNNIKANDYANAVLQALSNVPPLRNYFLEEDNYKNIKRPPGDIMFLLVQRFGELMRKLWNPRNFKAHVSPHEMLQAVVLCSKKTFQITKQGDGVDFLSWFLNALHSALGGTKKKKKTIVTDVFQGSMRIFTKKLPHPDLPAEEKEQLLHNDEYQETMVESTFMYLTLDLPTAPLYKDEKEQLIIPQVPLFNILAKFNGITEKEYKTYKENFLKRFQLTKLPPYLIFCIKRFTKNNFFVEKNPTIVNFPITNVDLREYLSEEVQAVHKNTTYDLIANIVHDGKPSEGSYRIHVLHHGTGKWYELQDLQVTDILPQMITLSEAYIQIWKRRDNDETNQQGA
assay.procedure: log2 ratio of Biotin-Ahx-Ub-VS probe labelling (fragment/DMSO); higher = less target engagement (more negative = stronger competition), active = hit call of the paper (q ≤ 0.05, log2 ratio ≤ -1)
condition.set: compound concentration: 200 uM; treatment time: 3 h
Binary call on log2 ratio of Biotin-Ahx-Ub-VS probe labelling: 1 from -0.005 upward, -1 beneath that.

Record excerpt, results attached:
{"compound": "O=C(CCl)N1CCN(C(=O)N2CCCCC2)CC1", "target.entity": "USP39 (UniProt Q53GS9)", "group.label": -1}
{"compound": "CNC(=O)C1(NC(=O)CCl)CCCCC1", "target.entity": "USP39 (UniProt Q53GS9)", "group.label": 1}
{"compound": "O=C(CCl)NCCC1COCCO1 (stereo not given)", "target.entity": "USP39 (UniProt Q53GS9)", "group.label": 1}

Pending compound:
Q. Is reported log2 ratio of Biotin-Ahx-Ub-VS probe labelling greater than or equal to -0.005 here: O=C(CCl)NCc1noc(C2CC2)n1
A. 1
